molecular target: recombinant JAK2 (Homo sapiens); construct: purchased Upstate Cell Signaling Solutions; assay: IC50 value determinations for Jak2 kinase, luminescence-based kinase assay (Kinase-Glo); type: biochemical; details: Table 1
Sequence (O60674 808-1132 limits assumed): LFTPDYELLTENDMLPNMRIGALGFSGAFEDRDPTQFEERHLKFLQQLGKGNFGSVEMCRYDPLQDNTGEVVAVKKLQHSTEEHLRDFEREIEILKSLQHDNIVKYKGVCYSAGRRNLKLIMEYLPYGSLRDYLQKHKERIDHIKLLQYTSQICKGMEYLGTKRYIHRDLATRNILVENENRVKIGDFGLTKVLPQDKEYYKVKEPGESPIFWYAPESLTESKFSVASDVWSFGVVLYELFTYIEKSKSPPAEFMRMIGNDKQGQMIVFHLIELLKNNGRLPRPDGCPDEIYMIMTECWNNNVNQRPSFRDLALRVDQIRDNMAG
Structures can show the parent of a compound that is named as a salt.
measurement.label: IC50 (nM)

* Cc1cnc(Nc2ccc(OCCN3CCCC3)cc2)nc1Nc1cccc2c1OCO2 [drawing 333] | 16.9
* Cc1cnc(Nc2ccc(N3CCN(C)CC3)cc2)nc1Nc1cccc(C(N)=O)c1 | 23
* Cc1cnc(Nc2ccc(N3CCN(C)CC3)cc2)nc1Nc1cccc(C(N)=O)c1C | 26.2
* Cc1cnc(Nc2nc(Nc3ccc(OCCN4CCCC4)cc3)ncc2C)nc1Nc1cccc(C(C)(C)C)c1 [Hydrochloride] | 153
* Cc1cnc(Nc2ccc(OCCO)nc2)nc1Nc1cccc2c1OCO2 | 116
* Cc1cnc(Nc2ccc(OC3CCNCC3)cc2)nc1Nc1cccc(C(F)(F)F)c1C | 52.9
* Cc1cnc(Nc2cccc(S(=O)(=O)N3CCCCC3)c2)nc1Nc1cccc(S(=O)(=O)NC(C)(C)C)c1 | 316
* Cc1cnc(Nc2ccc(C[N+]3([O-])CCOCC3)cc2)nc1Nc1cccc(S(=O)(=O)NC(C)(C)C)c1 | 48.6
* CNC(=O)c1cccc(Nc2nc(Nc3ccc(OCCN4CCCC4)cc3)ncc2C)c1 | 257
* Cc1cnc(Nc2ccc(-c3nnn[nH]3)cc2)nc1Nc1cccc(S(=O)(=O)NC(C)(C)C)c1 | 96.7

1. Cc1cnc(Nc2ccc(C(=O)N3CCCC3)cc2)nc1Nc1cccc(S(=O)(=O)NC(C)(C)C)c1
2. Cc1cnc(Nc2ccc(N3CCN(CCO)CC3)cc2)nc1Nc1cccc(S(=O)(=O)NC(C)(C)C)c1 [Hydrochloride]
3. Cc1ccc(Nc2nc(Nc3ccc(N4CCN(C)CC4)cc3)ncc2C)cc1C [drawing 459, Hydrochloride]
4. Cc1cnc(Nc2ccc(OC3CCNCC3)cc2)nc1Nc1cccc(O)c1
Lookup: Sort low-to-high on IC50, please. // respond by listing labels in the order requested
Found: 2, 3, 1, 4
(2: 7.09 nM, 3: 16.6 nM, 1: 33.5 nM, 4: 51.9 nM)

1. COc1cc(Nc2nc(Nc3ccc(OCCO)cc3)ncc2C)ccc1Cl
2. COc1cc(Nc2nc(Nc3ccc(CN4CCNCC4)cc3)ncc2C)ccc1Cl
Lookup: Select the item with the higher value of IC50 from the options 1 and 2 listed. Answer with the label corresponding to your selection.
Found: 2
(2: 15.2 nM, 1: 9.14 nM)

P. Cc1ccc(Nc2nc(Nc3ccc(OCCN4CCCC4)cc3)ncc2C)cc1S(=O)(=O)NC(C)(C)C
Q. Cc1cnc(Nc2ccc(OCCN3CCCC3)cc2)nc1Nc1ccc(Cl)c(C(F)(F)F)c1
Lookup: Select the item with the higher value of IC50 from the options P and Q listed. Answer with the label corresponding to your selection.
Found: P

1. Cc1cnc(Nc2ccc(OCCN3CCCC3)cc2)nc1Nc1cccc(S(N)(=O)=O)c1
2. Cc1cnc(Nc2ccc(-n3ccnc3C)cc2)nc1Nc1cccc(C(C)(C)C)c1 [Hydrochloride]
Lookup: Lower value of IC50 belongs to which: 1 or 2 ? Answer with the label corresponding to your selection.
Found: 2
(2: 38.4 nM, 1: 72.2 nM)

a. CCCS(=O)(=O)c1cccc(Nc2nc(Nc3ccc(N4CCN(C)CC4)cc3)ncc2C)c1
b. Cc1cnc(Nc2ccc(N3CCN(C)CC3)cc2)nc1Nc1cccc(C(C)(C)C)c1 [Hydrochloride]
Lookup: Lower value of IC50 belongs to which: a or b ? Answer with the label corresponding to your selection.
Found: b
(b: 4.7 nM, a: 8 nM)

a. Cc1cnc(Nc2ccc(OCCO)cc2)nc1Nc1cccc(S(=O)(=O)NC(C)(C)C)c1
b. Cc1cnc(Nc2ccc(N3CCNCC3)nc2)nc1Nc1cccc(S(=O)(=O)NC(C)(C)C)c1
Lookup: Select the item with the higher value of IC50 from the options a and b listed. Answer with the label corresponding to your selection.
Found: a
